Cited source: PubChem BioAssay (NCATS)

# assay: Confirmatory screen NINDS Rhodamine qHTS for Zika virus inhibitors (AID 1347161); further: nearly all actives have a fitted effect of over 60% in size
# condition.context: purified enzyme assay, Rhodamine110 substrate fluorescence, 15 min; series mostly up to 114 µM
Inconclusive results are not listed. Active and inactive are the calls of the source. The call rests on the fitted dose curve; in most records, active means well fitted inhibition curve with a large enough effect; inconclusive means small, poorly fitted or top-dose-only effect; inactive means no such curve, though single readings can be large or run the other way.
Use one of these outcomes when replying: active, inactive

molecule: CCCCCCCC/C=C\CCCCCCCC(=O)NCCc1ccc(O)c(O)c1
assigned.category: active
--
molecule: Nc1ccc(-c2ccc3ccccc3n2)cc1
assigned.category: inactive
--
molecule: O=c1[nH]c(=S)[nH]c(-c2ccccc2)c1Cc1c(O)ccc2ccccc12
assigned.category: active
--
molecule: Cn1cc(C(F)(F)F)nc1-c1ccc(OCC(O)CNCCOc2ccc(O)c(C(N)=O)c2)cc1 (stereo not drawn)
assigned.category: inactive

Exercise: Write down the call the test reported for this molecule. Item: `O=C(O)c1ccccc1Nc1cccc(OCc2ccc3ccccc3n2)c1`
Key: active

Exercise: Another molecule: `CCCc1c(OCCCOc2ccc(OCC(=O)O)cc2)ccc(C(C)=O)c1O`
Key: active

Exercise: Another molecule: `COc1ccccc1N1CCN(CCCNc2c(C)c(=O)n(C)c(=O)n2C)CC1`
Key: inactive

Exercise: Another molecule: `C/C(=C\c1ccc(C(=O)O)cc1)c1ccc2c(c1)C(C)(C)CCC2(C)C`
Key: active

---

# tgt: DNA repair nuclease/redox regulator APEX1 (Homo sapiens) (UniProt P27695)
# Sequence (P27695 whole entry, looked up): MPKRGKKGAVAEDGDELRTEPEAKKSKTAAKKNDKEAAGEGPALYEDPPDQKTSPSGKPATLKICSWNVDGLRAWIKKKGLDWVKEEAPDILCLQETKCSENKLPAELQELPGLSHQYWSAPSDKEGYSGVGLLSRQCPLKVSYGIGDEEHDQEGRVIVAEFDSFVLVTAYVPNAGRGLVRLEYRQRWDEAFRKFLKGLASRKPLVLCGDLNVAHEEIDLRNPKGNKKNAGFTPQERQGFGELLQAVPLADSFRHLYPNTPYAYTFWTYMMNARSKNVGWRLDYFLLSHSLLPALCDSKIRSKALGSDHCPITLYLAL
# assay: qHTS Validation Assay for Inhibitors of the Human Apurinic/apyrimidinic Endonuclease 1 (APE1) (AID 1705;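 further: TAMRA fluorescence gain over two minutes as APE1 cuts a quenched THF abasic duplex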)
# condition.context: purified APE1 endonuclease activity, fluorescence, titration; series mostly up to 57.1 µM
Inconclusive results are not listed. Activity calls are given as the source filed them. Calls come from the whole dose curve; as a rule, active = well fitted inhibition curve with a large enough effect; inconclusive = small, poorly fitted or top-dose-only effect; inactive = flat fitted curve, though single readings scatter.
experimental.endpoint: outcome

compound: CCn1c(=O)[nH]c2cc(Cl)c(Cl)cc21
outcome: inactive

compound: N[C@@H](Cc1c[nH]c2ccccc12)C(=O)O
outcome: inactive

compound: CC(C)NCC(O)COc1ccc(CC(N)=O)cc1 (configuration not stated)
outcome: inactive

compound: C=C(C)C1CC=C(C(=O)O)CC1 (configuration not stated)
outcome: inactive

compound: O=C(O)CCC(=O)N1CCCC1C(=O)O (configuration not stated)
outcome: inactive

Exercise: GET /values?readout=outcome&item= `COc1cc(N)c(Cl)cc1C(=O)OCCN1CCCCC1`
Key: inactive

Exercise: Another compound: `O=C(O)c1cc(=O)cc(C(=O)O)[nH]1`
Key: inactive

---

# tgt: D(1A) dopamine receptor (Homo sapiens) (UniProt P21728)
# Sequence (P21728 whole entry, looked up): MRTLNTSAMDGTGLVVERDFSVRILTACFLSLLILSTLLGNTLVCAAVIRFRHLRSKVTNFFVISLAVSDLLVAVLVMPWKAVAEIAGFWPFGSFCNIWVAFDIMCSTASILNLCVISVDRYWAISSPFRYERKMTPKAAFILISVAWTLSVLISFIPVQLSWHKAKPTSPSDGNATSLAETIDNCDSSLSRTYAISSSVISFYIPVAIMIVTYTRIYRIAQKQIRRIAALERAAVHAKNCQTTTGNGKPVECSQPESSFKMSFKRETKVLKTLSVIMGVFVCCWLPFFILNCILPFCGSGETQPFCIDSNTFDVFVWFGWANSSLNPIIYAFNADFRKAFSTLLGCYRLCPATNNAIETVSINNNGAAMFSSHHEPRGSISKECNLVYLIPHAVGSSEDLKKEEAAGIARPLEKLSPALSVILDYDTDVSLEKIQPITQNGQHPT
# assay: HTS Assay for Allosteric Agonists of the Human D1 Dopamine Receptor: Primary Screen for Potentiators (AID 488982)
# condition.context: HEK293 T-REx D1 inducible cells, calcium flux, kinetic fluorescence; series mostly up to 8.37 µM
Inconclusive results are not listed. The source made the active and inactive calls. The call rests on the fitted dose curve; in most records, active means well fitted activation curve with a large enough effect; inconclusive means small, poorly fitted or top-dose-only effect; inactive means no such curve, though single readings can be large or run the other way.
Use one of these outcomes when replying: y (active), n (inactive)

Previously resolved entries follow.
molecule: N=C(N)c1ccccc1
assigned.category: n
//
molecule: N[C@@H](CCC(=O)N[C@H](CSN=O)C(=O)NCC(=O)O)C(=O)O
assigned.category: n
//
molecule: O=C(O)C1CCCNC1 (stereo not drawn)
assigned.category: y
//
molecule: Cn1ccnc1
assigned.category: n
//
molecule: Cc1ccccc1/C=C/C1=NCCN1
assigned.category: n

Exercise: Write down the call the test reported for this molecule. Item: `N#Cc1cc2nc(O)c(O)nc2cc1[N+](=O)[O-]`
Key: n

Exercise: Another molecule: `CN(C)CCCc1cc(C(=O)Nc2ccc(-c3ccncc3)cc2)ccc1O`
Key: n

Exercise: Another molecule: `CC[C@@H]1Cc2cc(O)ccc2C2=C1c1ccc(O)cc1C[C@H]2CC`
Key: y

Exercise: Another molecule: CC(O)C(O)[C@H]1CNc2nc(N)[nH]c(=O)c2N1 (stereo partly drawn)
Key: n

Exercise: Another molecule: COC(=O)C1=C(C)NC(C)=C([N+](=O)[O-])C1c1ccccc1C(F)(F)F (stereo not drawn)
Key: n

Exercise: Another molecule: COC(=O)C(C)(N)Cc1ccc(O)cc1 (stereo not drawn)
Key: n

Exercise: Another molecule: `OC[C@H]1O[C@@H](n2cnc3cncnc32)[C@H](O)[C@@H]1O`
Key: n

Exercise: Another molecule: O=C(O)CCC(=O)N1CCCC1C(=O)O (stereo not drawn)
Key: n
